Catalogue of MIC readings, one per entry.
Tested on: Staphylococcus aureus
assay-text: Antibacterial activity against methicillin-resistant and quinolone-resistant Staphylococcus aureus ARC 517 assessed as growth inhibition by broth microdilution method
Assay type: functional
Reply with just the number (in µg/mL).

Reference set, count: 5
compound-structure-string | unit-label | MIC
Cc1cn([C@H]2CCCN([C@@H](CC(C)C)c3ccc(C(=O)O)c(Oc4cccc(Cl)c4)c3F)C2)c(=O)[nH]c1=O | µg/mL | 0.5
CC[C@@H](c1ccc(C(=O)O)c(Oc2cccc(Cl)c2)c1F)N1CCC[C@H](n2cc(C)c(=O)[nH]c2=O)C1 | µg/mL | 1
COc1c(CN2CCC[C@H](n3cc(C)c(=O)[nH]c3=O)C2)ccc(C(=O)O)c1Oc1cccc(Cl)c1 | µg/mL | 16
Cc1cn([C@H]2CCCN([C@H](CC(C)C)c3ccc(C(=O)O)c(Oc4cccc(Cl)c4)c3F)C2)c(=O)[nH]c1=O | µg/mL | 0.5
CCC[C@@H](c1ccc(C(=O)O)c(Oc2cccc(Cl)c2)c1)N1CCC[C@H](n2cc(C)c(=O)[nH]c2=O)C1 | µg/mL | 4

Kindly consider the entry below.
Query block: Name the recorded MIC of the compound listed here: CCC[C@@H](c1ccc(C(=O)O)c(Oc2cccc(Cl)c2)c1F)N1CCC[C@H](n2cc(C)c(=O)[nH]c2=O)C1
Result block: 0.5

---

Below is a list of entries, each paired with its recorded logD value.
assay-text: Octanol-sodium phosphate buffer partition coefficient, log D of the compound at pH 7.4 by shake-flask method
Respond using a number only.

compound-structure-string | logD
CC[C@@H](c1ccc(C(=O)O)c(Oc2cccc(Cl)c2)c1F)N1CCC[C@H](n2cc(C)c(=O)[nH]c2=O)C1 | 0.11
CC[C@H](c1ccc(C(=O)O)c(Oc2cccc(Cl)c2)c1OC)N1CCC[C@H](n2cc(C)c(=O)[nH]c2=O)C1 | -0.13
CCC[C@@H](c1ccc(C(=O)O)c(Oc2cccc(Cl)c2)c1F)N1CCC[C@H](n2cc(C)c(=O)[nH]c2=O)C1 | 0.51
CCC[C@H](c1ccc(C(=O)O)c(Oc2cccc(Cl)c2)c1F)N1CCC[C@H](n2cc(C)c(=O)[nH]c2=O)C1 | 0.53
CC[C@@H](c1ccc(C(=O)O)c(Oc2cccc(Cl)c2)c1)N1CCC[C@H](n2cc(C)c(=O)[nH]c2=O)C1 | 0.22

Query block: Note logD for the compound shown: Cc1cn([C@H]2CCCN([C@H](CC(C)C)c3ccc(C(=O)O)c(Oc4cccc(Cl)c4)c3F)C2)c(=O)[nH]c1=O
Result block: 0.92

Query block: Using known records, supply logD for Cc1cn([C@H]2CCCN([C@@H](CC(C)C)c3ccc(C(=O)O)c(Oc4cccc(Cl)c4)c3F)C2)c(=O)[nH]c1=O
Result block: 0.57

Query block: Note down logD recorded for CC[C@H](c1ccc(C(=O)O)c(Oc2cccc(Cl)c2)c1)N1CCC[C@H](n2cc(C)c(=O)[nH]c2=O)C1
Result block: 0.22

---

assay-text: Fraction unbound in human plasma at 10 uM after 5 hrs by rapid equilibrium dialysis method
Type: ADME, cell-free
quantity-name: fraction unbound at 5 h, 10 µM

Look over these answered cases.
compound-structure-string | fraction unbound at 5 h, 10 µM
Cc1cn([C@H]2CCCN([C@@H](CC(C)C)c3ccc(C(=O)O)c(Oc4cccc(Cl)c4)c3F)C2)c(=O)[nH]c1=O | 0.007
CCC[C@@H](c1ccc(C(=O)O)c(Oc2cccc(Cl)c2)c1OC)N1CCC[C@H](n2cc(C)c(=O)[nH]c2=O)C1 | 0.065
CCC[C@H](c1ccc(C(=O)O)c(Oc2cccc(Cl)c2)c1OC)N1CCC[C@H](n2cc(C)c(=O)[nH]c2=O)C1 | 0.034

Would you kindly look at the next entry?
Query block: Answer with reported fraction unbound at 5 h, 10 µM of CCC[C@@H](c1ccc(C(=O)O)c(Oc2cccc(Cl)c2)c1F)N1CCC[C@H](n2cc(C)c(=O)[nH]c2=O)C1
Result block: 0.007

---

assay-text: Inhibition of Staphylococcus aureus TMK assessed as decrease in ATP production using dTDP and ADP as substrate after 3.5 hrs by luciferin/luciferase based luminescence analysis
quantity-name: IC50 (nM)
State just the number; it will be interpreted in nM.

Illustrative cases are given below, each with its answer.
compound-structure-string | unit-label | IC50
CCC[C@@H](c1ccc(C(=O)O)c(Oc2cccc(Cl)c2)c1OC)N1CCC[C@H](n2cc(C)c(=O)[nH]c2=O)C1 | nM | 4
CCC[C@H](c1ccc(C(=O)O)c(Oc2cccc(Cl)c2)c1OC)N1CCC[C@H](n2cc(C)c(=O)[nH]c2=O)C1 | nM | 30
Cc1cn([C@H]2CCCN([C@H](CC(C)C)c3ccc(C(=O)O)c(Oc4cccc(Cl)c4)c3F)C2)c(=O)[nH]c1=O | nM | 1
COc1c(CN2CCC[C@H](n3cc(C)c(=O)[nH]c3=O)C2)ccc(C(=O)O)c1Oc1cccc(Cl)c1 | nM | 10

Here is the next item to consider.
Query block: Tell us which IC50 value is on record for CC[C@H](c1ccc(C(=O)O)c(Oc2cccc(Cl)c2)c1)N1CCC[C@H](n2cc(C)c(=O)[nH]c2=O)C1
Result block: 14

---

Items are presented alongside their recorded Retention_time.
assay-text: Retention time of the compound by LC-MS method
Assay type: physicochemical
A number alone suffices; assume min.

Worked cases, Retention_time given:
compound | quantity-name | result
COc1c(CN2CCC[C@H](n3cc(C)c(=O)[nH]c3=O)C2)ccc(C(=O)O)c1Oc1cccc(Cl)c1 | Retention_time | 2.17
CCOc1c(CN2CCC[C@H](n3cc(C)c(=O)[nH]c3=O)C2)cccc1Oc1cc(F)cc(Cl)c1 | Retention_time | 2.32

Query block: Report Retention_time for Cc1cn([C@H]2CCCN(Cc3cccc(Oc4cccc(Cl)c4)c3C#N)C2)c(=O)[nH]c1=O
Result block: 2.16

Query block: Indicate its recorded Retention_time; the compound in question is COc1c(CN2CCC[C@H](n3cc(C)c(=O)[nH]c3=O)C2)cccc1Oc1cc(F)cc(Cl)c1
Result block: 3

Query block: Provide Retention_time value for the following compound: Cc1cn([C@H]2CCCN(C(CC(C)C)c3ccc(C#N)c(F)c3F)C2)c(=O)[nH]c1=O (some centres undefined)
Result block: 1.93

---

Tested on: Staphylococcus aureus
assay-text: Antibacterial activity against methicillin-resistant and quinolone-resistant Staphylococcus aureus ARC 517 assessed as growth inhibition by broth microdilution method
Type: functional
// values below are reported MIC
Quick reminder: number only, in µg/mL, skip the unit.

Some molecules with known MIC results, for comparison:
compound-structure-string | MIC (µg/mL)
CCC[C@H](c1ccc(C(=O)O)c(Oc2cccc(Cl)c2)c1F)N1CCC[C@H](n2cc(C)c(=O)[nH]c2=O)C1 | 1
CC[C@H](c1ccc(C(=O)O)c(Oc2cccc(Cl)c2)c1F)N1CCC[C@H](n2cc(C)c(=O)[nH]c2=O)C1 | 2
CCC[C@@H](c1ccc(C(=O)O)c(Oc2cccc(Cl)c2)c1OC)N1CCC[C@H](n2cc(C)c(=O)[nH]c2=O)C1 | 4

Query block: Answer with reported MIC of CC[C@H](c1ccc(C(=O)O)c(Oc2cccc(Cl)c2)c1)N1CCC[C@H](n2cc(C)c(=O)[nH]c2=O)C1
Result block: 2

Query block: Supply MIC value. Item: Cc1cn([C@H]2CCCN(Cc3ccc(C(=O)O)c(Oc4cccc(Cl)c4)c3)C2)c(=O)[nH]c1=O
Result block: 32

Query block: State its MIC for this molecule: CCC[C@H](c1ccc(C(=O)O)c(Oc2cccc(Cl)c2)c1)N1CCC[C@H](n2cc(C)c(=O)[nH]c2=O)C1
Result block: 1

Query block: Fill in reported MIC for this entry: CC[C@@H](c1ccc(C(=O)O)c(Oc2cccc(Cl)c2)c1)N1CCC[C@H](n2cc(C)c(=O)[nH]c2=O)C1
Result block: 4

Query block: Give MIC for the following molecule: CC[C@@H](c1ccc(C(=O)O)c(Oc2cccc(Cl)c2)c1OC)N1CCC[C@H](n2cc(C)c(=O)[nH]c2=O)C1
Result block: 2

Query block: Return MIC (reported value) for this molecule: Cc1cn([C@H]2CCCN(Cc3ccc(C(=O)O)c(Oc4cccc(Cl)c4)c3F)C2)c(=O)[nH]c1=O
Result block: 16

---

assay-text: Octanol-sodium phosphate buffer partition coefficient, log D of the compound at pH 7.4 by shake-flask method
# Lookup of reported logD keyed by entry
Please reply with the number alone, leaving off any unit.

Example results:
compound-structure-string | logD
COc1c(CN2CCC[C@H](n3cc(C)c(=O)[nH]c3=O)C2)ccc(C(=O)O)c1Oc1cccc(Cl)c1 | -0.77
CC[C@@H](c1ccc(C(=O)O)c(Oc2cccc(Cl)c2)c1OC)N1CCC[C@H](n2cc(C)c(=O)[nH]c2=O)C1 | -0.02
CCC[C@@H](c1ccc(C(=O)O)c(Oc2cccc(Cl)c2)c1OC)N1CCC[C@H](n2cc(C)c(=O)[nH]c2=O)C1 | 0.13
CC[C@H](c1ccc(C(=O)O)c(Oc2cccc(Cl)c2)c1F)N1CCC[C@H](n2cc(C)c(=O)[nH]c2=O)C1 | 0.12
CCC[C@H](c1ccc(C(=O)O)c(Oc2cccc(Cl)c2)c1OC)N1CCC[C@H](n2cc(C)c(=O)[nH]c2=O)C1 | 0.08

For the next question, use this molecule.
Query block: Give recorded logD. Cc1cn([C@H]2CCCN(Cc3ccc(C(=O)O)c(Oc4cccc(Cl)c4)c3F)C2)c(=O)[nH]c1=O
Result block: -0.59
